Target: gH of HCMV strain TR (human cytomegalovirus strain TR)
Assay: cell-based or functional assay
measurement_label: IC50, inhibition of TR cell-to-cell spread in ARPE-19
The answer consists of two parts: a number and, after it, its unit.

Please report the recorded IC50, inhibition of TR cell-to-cell spread in ARPE-19 for 62-11 (antibody, V domains shown, also called NAb 62-11) VH: QVQLQQPGAELVRPGASVKLSCKASGYTFTSYWMNWVKQRPGQGLEWIGMIDPSDSETHYNQMFKDKATLTVDKSSSTAYMQLSSLTSEDSAVYYCSNGYSSFAYWGQGTLVTVSV VL: DVQMTQTTSSLSASLGDRVTISCSASQGISNYLNWYQQKPDGTVKLLIYDTSSLHSGVPSRFSGSGSGTDYSLTISNLEPEDIATYYCQQYSKLPYTFGGGTKLEIK .
395 µg/mL
